All values here come from the supplement of paper PMC10567573.

B1: CDC25A (parent)
chain: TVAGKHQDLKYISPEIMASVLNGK

- Variants of: B1
- measurement protocol: protein stability index of a GFP-peptide fusion (GPS, HEK-293T) (PSI 1-6); higher = more stable;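 note: lentivirally expressed fusions sorted by FACS into six bins by GFP to DsRed ratio, PSI derived from sequencing read proportions per bin multiplied by bin number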
- experimental context: c terminus: a fixed tail appended
So I've got a bunch of variants here, and I need their protein stability index values.
Answer field: number only, no words.

// returns reported protein stability index for input "V20C"
2.93

Reported protein stability index, variant "K24R" : ____
3.06

Given "P14K" , state its recorded protein stability index.
2.96

Return reported protein stability index; argument: "D8P"
2.91

Recorded protein stability index of "H6G" , please.
3.06
